# Tested on: Rice
# ASSAY NOTES: post-emergence herbicidal activity, greenhouse
# Assay type: in vivo
# STUDY CONDITIONS: Table III; 2 WAT; 1.1 kg/h; formulated in anhydrous tetrahydrofuran
Can you tell me Plant Response Index (O) for the items I'm about to list?

The following molecules have reported results that may help.
{"columns": ["CPD SMILES", "TARGET OR SYSTEM", "Plant Response Index (O)"],
 "data": [
  ["CCOC(=O)CNCP(=O)(O)O[Si](c1ccccc1)(c1ccccc1)C(C)(C)C", "Rice", "1 (25-49% inhibition)"],
  ["CCCCOC(=O)CNCP(=O)(O)O[Si](c1ccccc1)(c1ccccc1)C(C)(C)C", "Rice", "0 (0-24% inhibition)"]
]}

Batch: Plant Response Index (O) for all items listed.
1. CCCCOC(=O)CNCP(=O)(O)O[Si](C)(C)C(C)(C)C
2. CC(C)(C)[Si](OP(=O)(O)CNCC(=O)O)(c1ccccc1)c1ccccc1

["0 (0-24% inhibition)", "0 (0-24% inhibition)"]
